From: ChEMBL document CHEMBL1140698

- TEST NAME: Clearance in mouse at 5 mg/kg, iv or 10 mg/kg, po
- Type: ADME, organism-based
- CONDITION PARAMETERS: in vivo
PROPERTY: clearance (mL/min/kg)
Answers are plain numbers, in mL/min/kg.

Worked examples, 2 compounds total:
                            compound_string  measured_result
0  CONC(=O)c1ccc(C)c(Nc2ncnn3cc(C(=O)N[C@@H](C)c4ccccc4)c(C)c23)c1               31
1  CCCNC(=O)c1cn2ncnc(Nc3cc(C(=O)NOC)ccc3C)c2c1C               28

Using the record for CCNC(=O)c1cn2ncnc(Nc3cc(C(=O)NOC)ccc3C)c2c1C , state its measured clearance.
93

----------
- TEST NAME: Drug level in rat plasma at 10 mg/kg, po after 0.5 hrs
- Format: ADME, organism-based
- Set-up: dose 10 mg/kg, route oral
PROPERTY: log10 concentration at 0.5 h (log10 of the value in µM)
Give log10 of concentration at 0.5 h, with concentration at 0.5 h taken in µM.

                            compound_string  measured_result
0  CONC(=O)c1ccc(C)c(Nc2ncnn3cc(C(=O)N[C@@H](C)c4ccccc4)c(C)c23)c1             0.32
1  CC[C@H](C)NC(=O)c1cn2ncnc(Nc3cc(C(=O)NOC)ccc3C)c2c1C             0.63
2  CCNC(=O)c1cn2ncnc(Nc3cc(C(=O)NOC)ccc3C)c2c1C            -0.10
3  CONC(=O)c1ccc(C)c(Nc2ncnn3cc(C(=O)NC(C)C)c(C)c23)c1             0.58
4  CONC(=O)c1ccc(C)c(Nc2ncnn3cc(C(=O)NCc4ccccn4)c(C)c23)c1             0.53
5  CCCNC(=O)c1cn2ncnc(Nc3cc(NC(=O)OCC)ccc3C)c2c1C            -0.40

// below: log10 concentration at 0.5 h requested for another compound
Using the record for CCCNC(=O)c1cn2ncnc(Nc3cc(C(=O)NOC)ccc3C)c2c1C , state its measured log10 concentration at 0.5 h.
0.82
